assay: protein stability index of a GFP-peptide fusion (yeast GPS) (PSI 1-4); higher = more stable; sorted into four equal gates, so the index is relative within each strain; conditions: ubr1∆
Heads up, the class ranges for protein stability index are band 1 (below 2), band 2 (2 to below 3), band 3 (3 or more)

Pick a category. Item: AARKAANKEKRAIILER [RPL7A]
band 1

Again, but for ELTDEYLAENPDPNFEN [PRP8]
band 3

Again, but for GKVRLWKATYSNEFKCM [YGL100W/SEH1]
band 2

Again, but for AGQNATVAVMSYSGYDI [RET1]
band 1

Again, but for FEQFEKFYEEKLWFQLS [RPN9]
band 1

Again, but for DLKIEKLVLNISVGESG [RPL11A]
band 1

Again, but for ARIIRSELLARDIFQED [RGR1]
band 2

Again, but for ISKTVRFNVVKVSAAAG [RPS11A]
band 1

Again, but for EYIDAEEEESILIAMQP [RPB2]
band 3

Again, but for VYSVDPLEKITDAYLDQ [PRP8]
band 3

Again, but for DEYQAAVEQRKKEKLDS [DPB4]
band 3

Again, but for TRAQYLAFAKLVHSEYL [SRP68]
band 1

Again, but for LKRNSWPKTRGVAMNPV [RPL2A]
band 2

Again, but for KFNELVKLMKNITDYET [BRR2]
band 1

Again, but for PSTTDDENGDKNDNGGK [SWI3]
band 3

Again, but for ENLNRNWRGREHWKVRN [BRN1]
band 3

Again, but for RETDPLVYNMTSFEQGE [RPT4]
band 2

Again, but for DSILNYAKSEFDNVASV [ECM29]
band 3

Again, but for MLSFCPSCNNMLLITSG [RPC11]
band 2

Again, but for TPYSNESGLVNADLDVK [RPO21]
band 2

Again, but for AFDIELSEFGIKKMLHL [YCS4]
band 3

Again, but for QAPKQRRRTYRAHGRIN [RPL17A]
band 2

Again, but for ATPSAKEASQEDDNNNV [YLR335W/NUP2]
band 2

###

test: protein stability index of a GFP-peptide fusion (yeast GPS) (PSI 1-4); higher = more stable; sorted into four equal gates, so the index is relative within each strain; details: ubr1∆
outcome_measure: protein stability index
Write no unit; give the number alone.

Requested field: protein stability index. Item: SGITGECLQAYIFFGPI [RET1]
2.79

Again, but for STVKGSVDLEKLAFGLT [TAF14]
3.67

Again, but for IDQVMMSVSDNDQALIK [RET1]
3.01

Again, but for KLLKSLKNTKYFQQTTI [PRP8]
2.59

Again, but for ADVLSILAMTYSENGKH [RPN1]
1.36

Again, but for PVLNLDKLWTLIPEDKR [RPL28]
1.17

Again, but for NQSTIYEDEELSRAEYD [LIN1]
3.27

Again, but for ENIEPLDPINLPLDSQD [PRP8]
3.04

Again, but for GSYNAFEPASRLQGIKL [COR1]
2.99

Again, but for FVAATTNAGYTIELAGG [FAS1]
2.68

Again, but for YYLWTGKQVFSLLIKPN [RPO31]
1.59

Again, but for YMHDTELNYFVGCKNLE [GRR1]
3.21

Again, but for VDVELITSINVENDTFI [FAS2]
3.32

Again, but for TQKTELEIDNKDSVTEC [SIR4]
2.5

Again, but for ATQKESLEMVPKDTSAA [RGR1]
3.17

Again, but for HKKIKVAQPDSLRETNT [SIR2]
3.2

Again, but for VRIDKALELDDTVVSRV [ECM29]
3.13

Again, but for EQEQQQQQIIKIRITLT [RPS20]
3.09

Again, but for DQFQWILRKPGKDCKLQ [RRI2]
3.3

Again, but for TKLGFTFTIKEFVSYYY [SNU114]
1.76

Again, but for ELALIEEAYDNPHDTLN [PRP8]
3.41

Again, but for LQYTALTGSPNNPLVQK [ARP7]
2.95

Again, but for DNTARVIFDASIKDTQN [BRN1]
2.68

Again, but for FLQGESPFSITFSVYHE [YMR129W/POM152]
2.36

Again, but for KYPIFTGESWVKLTYNS [YDL088C/ASM4]
2.34

Again, but for IDDANVTRKQEDARRNP [RPC37]
2.01

Again, but for FKQKLNELLKCKDDVQL [MTW1]
3

Again, but for SKLKKETASFIPTKESL [YIL149C/MLP2]
2.57

Again, but for STTEHINIDDLLYELTA [YJL039C/NUP192]
3.05

Again, but for NLEFNYTKPYPNFEASF [SMC2]
2.74

Again, but for KQDKTLQKVENQTIKEA [YIL149C/MLP2]
3.17

Again, but for MYNGKDRAQNSYQPMYQ [SSN3]
3.2

Again, but for HASENISLSFSRPASYG [SIR4]
3.19

Again, but for SRKGIAFGLGAIMSKSS [ECM29]
1.74

Again, but for TSAVELGAIEQILIFAA [YJL039C/NUP192]
3.32

Again, but for LKQEIDRGLSIKLNGST [SNU114]
2.88

Again, but for LNSYWVNQDSTYKYFEV [RPL15A]
3.2

Again, but for DVLHPNRANVSKDELRE [RPS24A]
3.1

Again, but for VNGAKNLVVSGPPQSLY [FAS1]
2.2

Again, but for KATLELLKLIEPYVAYG [RPL7A]
2.79

Again, but for EETYEEKPQFKDGETTD [RPO26]
3.34

Again, but for PNSSANNNPLQQQSSQN [GAL11]
2.98

Again, but for LDKLDEILYYQIKTLPE [AAR2]
3.25

Again, but for MAKDIEISASESKFILE [RRP45]
3.02

Again, but for SNSTPNANQQFLPFNNS [SWI1]
2.94

Again, but for VNETEAILYTKPGHVLQ [YGR119C/NUP57]
3.66

Again, but for NLLTPQPTNFTTKRLWS [MCD1]
2.85

Again, but for SQDTKVICSVTGPIEPK [RRP46]
2.12

Again, but for VREHYLRSDIPCLSRSC [DIS3]
2.44

Again, but for KESPWKILMYQYNIPPE [RRP6]
1.57

Again, but for DSTNLSDDAAQFMKRFP [ECM29]
3.06

Again, but for KEKLTVQDCRYSLASVT [POP1]
2.46

Again, but for HPSIYTQVFNILLQHKE [POP1]
2.39

Again, but for LNLTGPKVPEDIYKSHL [RPN1]
2.9

Again, but for GAAANNNDQKRQQAYKT [YJL041W/NSP1]
3.22

Again, but for LLRRLKKDVEKELPDKV [SNF2]
3.38

Again, but for LDSMIELFKDYKPGSIT [MED1]
1.99

Again, but for TSSTHERKSKTYVITKN [RET1]
2.84

Again, but for ATNANATTDQEGDIHLE [PRE10]
3.11

Again, but for SVSLVDEFPSELSDSDR [SIR4]
2.16

###

test: protein stability index of a GFP-peptide fusion (yeast GPS) (PSI 1-4); higher = more stable; sorted into four equal gates, so the index is relative within each strain; settings: doa10∆
outcome_measure: protein stability index
Write no unit; give the number alone.

Requested field: protein stability index. Item: NMKVTILHGSKSQEQRE [PRP28]
3.42

Again, but for QSESRQKRQLHDISKTE [SNU114]
3

Again, but for GKIEKIAQSKKKNNKIK [SRP21]
3.11

Again, but for TTPEINNFIVERVQSDE [SRP68]
3.18

Again, but for DGMDAAHIEKQSLDTIG [RPO21]
3.36

Again, but for QTAVTCESCSTVLCTPT [RPS27B]
1.89

Again, but for QRHIAVGKQIVNIPSFM [RPS9A]
2.48

Again, but for NKTVNEAAKPSLSFGSG [YJL041W/NSP1]
3.5

Again, but for KTVCAIALILAIQMVDP [SMC3]
1.11

Again, but for MEDKISEFLNVPFESLQ [YIL149C/MLP2]
3.18

Again, but for DQFQWILRKPGKDCKLQ [RRI2]
2.62

Again, but for EEEMAPYYKYLCEEYLV [RPN7]
2.12

Again, but for HLAICLDIINPGSVEEV [YDL116W/NUP84]
2.66

Again, but for QEPFLNSSNYAELFNND [PRP8]
2.61

Again, but for SRKGIAFGLGAIMSKSS [ECM29]
1.61

Again, but for NVEKPSSKPAFNLISNA [YLR335W/NUP2]
3.1

Again, but for VGRRAANLRVLNSYWVN [RPL15A]
1.97

Again, but for KLRETLVKIDDLSANQR [SMC1]
3.11

Again, but for ILDPQVTRFTTWNGSPF [YJL039C/NUP192]
1.26

Again, but for YKKPTGGIVTVRSEMGE [FAS1]
2.66

Again, but for EHKTPELISFKERTKSL [YIL149C/MLP2]
2.85

Again, but for KNMFEKKASKVTVDADI [ISW2]
2.44

Again, but for KKTRIIPRHLQLAIRND [HTA1]
2.47

Again, but for AIVVGWRAIIKAIFPNT [FAS1]
2.44

Again, but for TASSEASAGSKEGASTN [YMR153W/NUP53]
3.09

Again, but for SENRFPGWDFETEEIDP [RPL5]
2.77

Again, but for YQMQSNYESVFTYNKFL [YIL149C/MLP2]
1.29

Again, but for TTSERVSNENKKNIDYQ [RRI1]
2.98

Again, but for VCFNNLVDENTDYLYRR [YCS4]
2.61

Again, but for IEMYVQEASKQYTKDEQ [RPN2]
3.3

Again, but for RIARALKQEGAANKTVV [RPL18A]
3.44

Again, but for QITLTFISELCSIEPIA [YML103C/NUP188]
1.27

Again, but for IRNARSIRAEAVAASST [POP1]
3.13

Again, but for GQLISLLFEDLFKKFNN [RET1]
3.1

Again, but for MERFSVLCNSNISKSRA [RRP6]
2.42

Again, but for LPNIYPSTRCKLKLLRM [RPT2]
1.33

Again, but for KQNNKDFRTRYIDIRTN [MTW1]
2.69

Again, but for DRKSIMPLKILLATKQH [CSN12]
1.9

Again, but for DGLEKAAFNGVTFKDKY [FAS2]
1.94

Again, but for RERRAALTDFERFQVMV [RPL14A]
1.77

Again, but for QPAKEKGVTEKDAVDYS [RRP6]
3.2

Again, but for FLKKVMDTIQDKLINDV [ECM29]
3.08

Again, but for SGDNHTQQSHEQQPEQP [RPT4]
2.96

Again, but for FQYVIDESSGTSRIDEE [SMC4]
2.93

Again, but for LCVLDYDNIDIQRGRIL [RPB7]
1.96

Again, but for LQYTALTGSPNNPLVQK [ARP7]
2.66

Again, but for IKGQCLATLLGHNDWVS [ASC1]
1.37

Again, but for QINKAQILENYNALFQQ [YJL039C/NUP192]
2.81

Again, but for LLFFNFSHSLTTILSFS [NUT1]
1.41

Again, but for DTRFGGRMDMTRLYDYE [SSN2]
3.14

Again, but for SYFLKLLGNCYSLRLIN [SRB8]
2.81

Again, but for QSKKLIEEKLSSFSKKT [YIL149C/MLP2]
2.9

Again, but for PMVSVMKMDKSPTESYS [RPT2]
1.64

Again, but for QWSMVAQRLQISDYQQL [SWI1]
1.53

Again, but for ILEELDFVRNELNDIDT [SMC3]
3.08

Again, but for ADAVTKDLKLRREDEII [REC8]
3.08

Again, but for NLEKNYLAKLSKQLSLE [IRR1]
3.19

Again, but for LGSGSLAAMAVLESHWK [PUP1]
3.24

Again, but for TEDQKVTTNINWRSFNA [SRP68]
3.13
